assay-system: PCSK9 (Homo sapiens (Human), UniProt Q8NBP7)
Sequence (Q8NBP7 153-692): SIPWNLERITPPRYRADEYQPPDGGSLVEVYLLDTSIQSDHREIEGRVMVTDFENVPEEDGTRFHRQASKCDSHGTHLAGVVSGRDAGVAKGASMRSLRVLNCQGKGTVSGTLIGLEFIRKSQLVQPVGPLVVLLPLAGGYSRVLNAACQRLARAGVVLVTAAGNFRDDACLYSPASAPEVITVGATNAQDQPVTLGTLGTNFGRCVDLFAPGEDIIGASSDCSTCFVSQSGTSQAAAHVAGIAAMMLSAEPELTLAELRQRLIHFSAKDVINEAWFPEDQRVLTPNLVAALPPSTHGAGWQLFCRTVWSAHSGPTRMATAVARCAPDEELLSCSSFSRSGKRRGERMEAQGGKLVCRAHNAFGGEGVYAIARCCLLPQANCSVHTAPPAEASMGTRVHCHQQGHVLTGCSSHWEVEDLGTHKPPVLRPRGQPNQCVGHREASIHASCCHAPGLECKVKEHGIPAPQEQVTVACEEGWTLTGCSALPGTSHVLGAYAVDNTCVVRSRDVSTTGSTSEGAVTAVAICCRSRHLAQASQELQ
experimental-protocol: PCSK9 Alexa FRET Plus assay (displacement of AlexaFluor647 tagged cyclic peptide Reagent B)
Type: binding
conditions: Alexa FRET Plus, 0.5 nM PCSK9, 960 nM AF cyclic peptide Reagent B; read-out: IC50
pIC50: −log10 of the molar value. Starred links: 1 amine or outer side, 2 acyl side, 3 side chain; linkers in the order of their positions; H or OH if unused. Positions of bridges follow the written chain, without caps; N, C: chain ends. Non-standard residues stand in square brackets, D forms with d. Residues, ends and D or L forms follow the SMILES beside them. ξ: configuration not given here. *: point of attachment. X32 = O=C(CCc1cccc2c1oc1c(CCN[*:1])cccc12)[*:2]; Trp(5-F) = N[C@@H](Cc1c[nH]c2ccc(F)cc12)C(=O)O; ξPhe(4-COOH) = NC(Cc1ccc(C(=O)O)cc1)C(=O)O; Pro(cis-4-F) = O=C(O)[C@@H]1C[C@H](F)CN1; mXylylene = c1cc(C[*:1])cc(C[*:2])c1; AEF = NCCOc1ccc(C[C@H](N)C(=O)O)cc1; αMeP = C[C@@]1(C(=O)O)CCCN1; dOrn = NCCC[C@@H](N)C(=O)O; Isobutyryl = CC(C)C(=O)*; Mpa = O=C(O)CCS
assay-readout: pIC50

Sample records with pIC50:
compound	assay-system	pIC50
C[C@@]12CCCN1C(=O)[C@H](Cc1ccc(O)cc1)NC(=O)CCc1cccc3c1Oc1c(cccc1-3)CCNC(=O)[C@H](Cc1c[nH]c3ccc(F)cc13)NC(=O)[C@H](Cc1c[nH]c3ccc(F)cc13)NC(=O)CNC(=O)[C@H](CCCCN)NC(=O)CCSCc1cccc(c1)CSC[C@H](C(N)=O)NC2=O [Compound 120] ([Mpa]KG[Trp(5-F)][Trp(5-F)][X32]Y[αMeP][dC]-NH2; linker 1-9 via mXylylene)	PCSK9 (Homo sapiens (Human), UniProt Q8NBP7)	5.30 to 6.30
COc1ccc(C[C@@H]2NC(=O)[C@H]([C@@H](C)O)NC(=O)[C@@H]3C[C@H](F)CN3C(=O)[C@H](Cc3c[nH]c4ccc(F)cc34)NC(=O)[C@H](Cc3c[nH]c4ccc(F)cc34)NC(=O)[C@@H](C)NC(=O)[C@H](CCCCN)NC(=O)[C@@H](NC(=O)C(C)C)CC(=O)NCCOc3ccc(cc3)C[C@@H](C(N)=O)NC(=O)[C@]3(C)CCCN3C2=O)cc1 [Compound 123] (Isobutyryl-DK[dA][Trp(5-F)][Trp(5-F)][Pro(cis-4-F)]TY(Me)[αMeP][AEF]-NH2; lactam 1-10)	PCSK9 (Homo sapiens (Human), UniProt Q8NBP7)	7.00 to 10.00

Continue with the next compound.
Req: Recorded pIC50 for CC(=O)N[C@@H]1CCCNC(=O)c2ccc(cc2)CC(C(N)=O)NC(=O)[C@]2(C)CCCN2C(=O)[C@H](Cc2ccc(O)cc2)NC(=O)[C@H](Cc2cnc[nH]2)NC(=O)[C@H](CC(=O)O)NC(=O)[C@H](Cc2c[nH]c3ccc(F)cc23)NC(=O)[C@H](Cc2c[nH]c3ccc(F)cc23)NC(=O)CNC1=O (stereo partly drawn) [Compound 327] (Ac-[dOrn]G[Trp(5-F)][Trp(5-F)]DHY[αMeP][ξPhe(4-COOH)]-NH2; lactam 1-9) , please?
Resp: 6.30 to 7.00
